// provenance: patent US11339156B2

Target: human M4 muscarinic acetylcholine receptor (Homo sapiens, UniProt P08173)
Construct: expressed in transfected cells
Sequence (P08173 1-479): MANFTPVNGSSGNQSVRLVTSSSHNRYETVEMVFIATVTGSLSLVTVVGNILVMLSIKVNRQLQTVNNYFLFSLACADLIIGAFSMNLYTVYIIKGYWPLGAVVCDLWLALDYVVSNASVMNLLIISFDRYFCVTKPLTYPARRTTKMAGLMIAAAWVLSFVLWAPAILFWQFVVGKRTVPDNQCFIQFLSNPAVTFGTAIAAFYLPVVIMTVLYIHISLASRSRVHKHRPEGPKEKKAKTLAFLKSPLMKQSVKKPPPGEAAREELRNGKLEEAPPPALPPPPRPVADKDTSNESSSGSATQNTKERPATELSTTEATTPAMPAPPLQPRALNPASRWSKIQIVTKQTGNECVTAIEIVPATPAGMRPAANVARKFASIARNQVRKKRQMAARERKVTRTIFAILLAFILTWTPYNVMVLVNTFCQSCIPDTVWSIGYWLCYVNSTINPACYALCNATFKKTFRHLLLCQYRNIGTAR
Assay: human FLIPR-based M4 PAM assay (CHO-K1 cells with human M4 receptor and Gαqi5, calcium dye fluorescence)
Type: cell-based
Settings: inflection point of 4 parameter logistic fit; acetylcholine added at 20% of maximum response; read-out: M4PAM IP
As shown below, each of these molecules has a reported pEC50 value.
pEC50 here is simply -log10 of the concentration when that concentration is written in mol/L.

Reference set, count: 7
1) Cc1cn2ccc(-c3nc(C#N)ccc3-c3cnn(CC(F)C(F)(F)F)c3)cc2n1 (centres unmarked); 7.21
2) Cc1cc(-c2cnn(CC3(C(F)(F)F)CC3)c2)c(-c2ccn3ccnc3c2)nc1Cl; 7.19
3) CSc1cnc(-c2ccc3c(c2)C(=O)NC3)c(-c2cnn(CCC(C)C)c2)c1; 6.46
4) CC(C)CCn1cc(-c2cc(Cl)cnc2-c2ccc3cn(C)nc3c2)cn1; 6.56
5) Cc1nc2cc(-c3ncc(F)cc3-c3cnn(CCC(C)(C)F)c3)ccc2n1C; 6.40
6) CC(C)CCn1cc(-c2cccnc2-c2ccc3c(c2)C(=O)NC3)cn1; 6.47
7) CC1(Cn2cc(-c3ccc(C#N)nc3-c3ccn4ccnc4c3)cn2)CCC1; 7.63

API: the following record is the query input.
Recorded pEC50 for N#Cc1ccc(-c2cnn(CC(F)(F)C(F)(F)F)c2)c(-c2ccn3ccnc3c2)n1 , please?
6.82

* * *

Target: human M4 muscarinic acetylcholine receptor (Homo sapiens)
Construct: expressed in transfected cells
Sequence (P08173 1-479): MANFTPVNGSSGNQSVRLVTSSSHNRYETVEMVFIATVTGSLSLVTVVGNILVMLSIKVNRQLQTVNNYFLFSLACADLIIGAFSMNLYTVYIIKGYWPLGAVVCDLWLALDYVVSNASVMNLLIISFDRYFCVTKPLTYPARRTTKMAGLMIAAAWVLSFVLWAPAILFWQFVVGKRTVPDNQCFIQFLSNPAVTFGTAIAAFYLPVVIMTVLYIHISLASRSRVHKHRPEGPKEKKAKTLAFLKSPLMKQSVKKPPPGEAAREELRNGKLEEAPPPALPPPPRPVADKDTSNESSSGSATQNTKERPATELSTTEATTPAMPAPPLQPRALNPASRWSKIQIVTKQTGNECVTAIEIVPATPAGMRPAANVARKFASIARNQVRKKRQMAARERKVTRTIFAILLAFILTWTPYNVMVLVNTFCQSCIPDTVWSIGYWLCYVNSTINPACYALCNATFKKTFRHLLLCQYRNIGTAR
Assay: human FLIPR-based M4 PAM assay (CHO-K1 cells with human M4 receptor and Gαqi5, calcium dye fluorescence)
Type: cell-based
Details: inflection point of 4 parameter logistic fit; acetylcholine added at 20% of maximum response; read-out: M4PAM IP
Measurement kind: pEC50
pEC50 here is simply -log10 of the concentration when that concentration is written in mol/L.

Reference set, count: 6
1) Cc1nc2cc(-c3ncc(F)cc3-c3cnn(CC(C)(C)C(C)(F)F)c3)ccc2n1C; 6.93
2) Cc1nc2cc(-c3nc(C#N)ccc3-c3cnn(CC(C)(C)C)c3)cnc2n1C; 6.93
3) Cc1nc2cc(-c3nc(C#N)ccc3-c3cnn(CC(C)(F)F)c3)ccc2n1C; 6.79
4) Cc1cn2ncc(-c3nc(C#N)ccc3-c3cnn(CC(C)(C)C(F)(F)F)c3)cc2n1; 7.12
5) Cc1cn2ccc(-c3nc(C#N)ccc3-c3cnn(CCC(F)(F)F)c3)cc2n1; 6.85
6) CC(C)(C)Cn1cc(-c2ccc(C(F)F)nc2-c2ccn3ccnc3c2)cn1; 7.39

Recorded pEC50 for N#Cc1ccc(-c2cnn(CC3(C(F)(F)F)CC3)c2)c(-c2ccn3ccnc3c2)n1 , please?
6.90

Recorded pEC50 for Cc1cn2ccc(-c3nc(C#N)ccc3-c3cnn(CC(O)C(C)C)c3)cc2n1 (stereo not shown) , please?
7.04

Recorded pEC50 for Cc1ccc(-c2cnn(Cc3ccccc3F)c2)c(-c2ccc3c(c2)C(=O)N(C2CC2)C3)n1 , please?
6.90
